The reported measurements were obtained from PubChem BioAssay (NCI).

System: DU-145 prostate
protocol: NCI-60 one-dose screen, 48 h (100 = growth as untreated, 0 = no growth, -100 = all killed)
protocol conditions: 10 µM unless noted
Compounds without any hit were thinned out: in the full panel of roughly 83,000, 20% have a hit.
growth below 50% gives condition not met; growth at or above it gives condition met.

Exercise: Kindly determine if growth recorded for "CCCCCCn1c(O)c(N=Nc2nc(-c3cc4ccccc4oc3=O)cs2)c2ccccc21" is above or exactly 50%.
Key: condition not met

Exercise: Kindly determine if growth recorded for "COc1ccc(C(=O)/C=C/c2ccc(Cl)c(Cl)c2)cc1S(N)(=O)=O" is above or exactly 50%.
Key: condition not met

Exercise: Kindly determine if growth recorded for "Cc1ccc(Cc2cnc(NC(=O)c3ccc(/C=C4\SC(=S)N(C)C4=O)cc3)s2)cc1" is above or exactly 50%.
Key: condition not met

Exercise: Kindly determine if growth recorded for "O=C(Cn1nc(-c2ccccc2)ccc1=O)N/N=C/c1ccc(N2CCOCC2)cc1" is above or exactly 50%.
Key: condition met

Exercise: Kindly determine if growth recorded for Cc1ccc(C2CC(c3ccc(S(=O)(=O)NCCNc4nc(Nc5ccc(F)cc5)nc(N(C)C)n4)cc3)=Nc3c(N)nc(N)nc3N2)cc1 (centres undefined) is above or exactly 50%.
Key: condition met

Exercise: Kindly determine if growth recorded for "NS(=O)(=O)c1ccc(NNC(=O)CCC(=O)c2ccccc2)cc1" is above or exactly 50%.
Key: condition met

Exercise: Kindly determine if growth recorded for "Cc1ccc(NC(=O)CN2CCN(c3ncnc4c3cnn4-c3ccccc3)CC2)cc1" is above or exactly 50%.
Key: condition met

Exercise: Kindly determine if growth recorded for "COc1ccc(C(=O)/C=C/c2ccc(Oc3nc(Nc4ccc(F)cc4)nc(N(C)C)n3)c(OC)c2)cc1" is above or exactly 50%.
Key: condition met

Exercise: Kindly determine if growth recorded for CC(C)C(C(=O)O)n1c(O)c(/C=C2/C=c3cc4c(cc3=NC2=O)OCO4)sc1=S (centres undefined) is above or exactly 50%.
Key: condition met

Exercise: Kindly determine if growth recorded for "COc1ccc(Cc2nn(CC(=O)N/N=C/c3ccc(F)cc3)c(=O)c3c(C)noc23)cc1" is above or exactly 50%.
Key: condition not met

Others:
Exercise: Kindly determine if growth recorded for C=C1CCC2C3(C)COC(c4ccccc4)OC3CCC2(C)C1CC(NCc1ccccc1)C1=CCOC1=O (centres undefined) is above or exactly 50%.
Key: condition met

Exercise: Kindly determine if growth recorded for "COc1cc(-c2nc3cc(Cl)c(Cl)cc3[nH]2)ccc1OCc1nnc(-c2cccs2)o1" is above or exactly 50%.
Key: condition not met

* * *

Test system: OVCAR-4 ovarian
protocol: NCI-60 one-dose screen, 48 h (100 = growth as untreated, 0 = no growth, -100 = all killed)
protocol conditions: 10 µM unless noted
Compounds without any hit were thinned out: in the full panel of roughly 83,000, 20% have a hit.
Label scheme, based on growth: bottom end = under 50%, midrange = from 50% up to 70%, top end = 70% and over

Please review the entries below; each comes with its answer.
Exercise: Form: Item = "CCC(C)(C)c1ccc(OCCCCN2CCN(c3ccncc3)CC2)cc1" ; Class = ?
Key: midrange

Exercise: Form: Item = "OCNc1ccc(-n2cnc3cc(-c4ccc(O)cc4)ccc32)cc1C(F)(F)F" ; Class = ?
Key: midrange

Exercise: Form: Item = "N#Cc1c(-c2ccc(Cl)cc2)nc2n[nH]c(-c3ccc(Cl)cc3)c2c1-c1ccc(C(F)(F)F)cc1" ; Class = ?
Key: bottom end

Exercise: Form: Item = "Cc1cc2nc3c4ccccc4n(CC4=NCCN4)c3nc2cc1C" ; Class = ?
Key: bottom end

Exercise: Form: Item = C=C1CCC2C3(C)COC(c4ccccc4)OC3CCC2(C)C1CC(NCc1ccccc1)C1=CCOC1=O (stereo not given) ; Class = ?
Key: top end

We now examine a further compound.
Exercise: Form: Item = "O=C(NNc1ccccc1)n1c(=O)c2ccccc2c(=O)n1-c1ccccc1" ; Class = ?
Key: top end
